From: PubChem BioAssay (NCI)

Recorded growth values for a group of compounds are listed next.
Tested on: NCI-H23 lung
ASSAY REMARKS: NCI-60 one-dose screen, 48 h (100 = growth as untreated, 0 = no growth, -100 = all killed)
MEASUREMENT PARAMETERS: 10 µM unless noted
This is part of a sample that, as a whole, favours compounds with a hit. Of some 83,000 tested, about 20% had one in any assay.

>  <COMPOUND>
C[C@]12CC[C@H]3[C@@H](CC[C@]4(O)C[C@@H](O[C@@H]5O[C@H](CO)[C@@H](O[C@@H]6OC[C@@H](O)[C@H](O)[C@H]6O)[C@H](O)[C@H]5O)CC[C@]34C=O)[C@@]1(O)CC[C@@H]2C1=CC(=O)OC1

>  <UNIT DESCRIPTOR>
%

>  <growth>
-37.1

$$$$
>  <COMPOUND>
CC[C@H](C)[C@H](NC(=O)c1cccn1C)C(=O)N(C)[C@H](C[C@@H](OC(C)=O)c1nc(C(=O)N[C@@H](Cc2ccccc2)C[C@H](C)C(=O)OC)cs1)C(C)C

>  <UNIT DESCRIPTOR>
%

>  <growth>
22.8

$$$$
>  <COMPOUND>
C=CC1=C[C@@H]2[C@@H]3O[C@]4(CC[C@H](O4)[C@@H](C)C[C@@H](O)C3=O)C[C@H](O)C3=NCC[C@@]32CC1

>  <UNIT DESCRIPTOR>
%

>  <growth>
-34.6

$$$$
>  <COMPOUND>
CCOP(=O)(NC[C@H]1O[C@](O)(CO)[C@@H](O)[C@@H]1O)OCC

>  <UNIT DESCRIPTOR>
%

>  <growth>
97.4

$$$$
>  <COMPOUND>
Nc1ccc2c(c1)Cc1cc(Br)ccc1-2

>  <UNIT DESCRIPTOR>
%

>  <growth>
90.5

$$$$
>  <COMPOUND>
CCCCCCCCCCCCNC(c1ccccc1)C(O)c1ccccc1 (stereo not drawn)

>  <UNIT DESCRIPTOR>
%

>  <growth>
78.7

$$$$
>  <COMPOUND>
Cc1c2cc(Cl)c3ccccc3c2c[n+]2ccccc12

>  <UNIT DESCRIPTOR>
%

>  <growth>
47.8

$$$$
>  <COMPOUND>
Fc1cccc(NCOOC2(OOCNc3cccc(F)c3)CCCCC2)c1

>  <UNIT DESCRIPTOR>
%

>  <growth>
81.9

$$$$
